molecular target: human IL-12 receptor (IL-12Rβ1 and IL-12Rβ2) on HEK-Blue IL-12 cells (human, UniProt P42701 24-662; Q99665 24-862); experiment: cell-based or functional assay
Sequence (Q99665 24-862, chain 2 of 2, other chains not shown): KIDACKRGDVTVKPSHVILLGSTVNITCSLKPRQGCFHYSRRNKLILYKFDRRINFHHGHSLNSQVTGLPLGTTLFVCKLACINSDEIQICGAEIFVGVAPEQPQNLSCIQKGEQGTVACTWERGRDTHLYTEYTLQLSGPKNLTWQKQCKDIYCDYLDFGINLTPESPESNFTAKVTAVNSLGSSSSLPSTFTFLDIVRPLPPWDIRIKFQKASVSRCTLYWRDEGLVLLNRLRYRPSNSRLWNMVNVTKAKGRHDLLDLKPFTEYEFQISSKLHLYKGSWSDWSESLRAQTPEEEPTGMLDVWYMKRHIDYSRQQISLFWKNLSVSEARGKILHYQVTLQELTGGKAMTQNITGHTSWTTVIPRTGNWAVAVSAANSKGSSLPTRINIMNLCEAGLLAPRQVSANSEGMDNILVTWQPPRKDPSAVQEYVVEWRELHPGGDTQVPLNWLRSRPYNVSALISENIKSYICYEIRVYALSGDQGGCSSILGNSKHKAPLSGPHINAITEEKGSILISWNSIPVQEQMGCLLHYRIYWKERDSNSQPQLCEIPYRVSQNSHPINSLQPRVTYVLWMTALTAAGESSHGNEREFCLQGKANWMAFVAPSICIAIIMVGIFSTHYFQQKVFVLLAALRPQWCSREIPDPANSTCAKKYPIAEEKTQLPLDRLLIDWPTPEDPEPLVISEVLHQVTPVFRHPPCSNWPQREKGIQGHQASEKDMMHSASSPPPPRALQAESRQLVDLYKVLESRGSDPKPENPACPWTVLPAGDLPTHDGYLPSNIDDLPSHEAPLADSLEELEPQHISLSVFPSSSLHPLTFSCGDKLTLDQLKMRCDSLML
TEST_READOUT: Max Absorbance

DGL586 (bispecific antibody, V domains shown, 258B1 x 19B2) V domain 1: QVQLVESGGGLVQAGGSLRLSCAASGRTFSSYVMGWFRQAPGQEREFVAAIMRNGIMTYYADSVKGRFTISRDNAKNTVYLQMNTLKPDDTAVYYCAAASRVGVSISQSSSYTSWGQGTQVTVEP V domain 2: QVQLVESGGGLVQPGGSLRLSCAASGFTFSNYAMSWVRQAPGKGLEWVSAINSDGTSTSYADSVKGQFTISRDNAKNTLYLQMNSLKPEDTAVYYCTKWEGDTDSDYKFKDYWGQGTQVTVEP; 0.6
DGL503 (bispecific antibody, V domains shown) V domain 1: EVQLVESGGGLVQAGGSLRLSCAASGLTFRNYAMAWFRQAPGKEREFVAGITWGGGLTHYVDSVKGRFTISRDNGKNTVYLQMNSLKSEDTAVYYCAGKTQGSTWYHLTPDGYDYWGQGTQVTVEP V domain 2: QVQLVESGGGLVQAGGSLRLSCAASGRIFSAYRMGWFRQAPGKEREFVAGITWRGQTTYYAASVKGRFTISKDNAKKTVYLQMNSLKPEETAVYYCAVETNGLGRWDRPSEYDYWGQGTQVTVEP; 0.35
